Tested on: SK-MEL-2 melanoma
Test: NCI tumour cell line growth inhibition, 48 h
Assay metric: TGI (µM)
Please respond with the number in µM and leave the unit unwritten.

Below are worked cases with known answers.
Molecule	Quantitative result
CCOC(=O)c1c(C)n(C)c2c1cc(O)c1[nH]c3c(c12)CCCC3	37
CCN(CC)C(=S)SC(C(=O)Nc1nnc(-c2ccccc2)o1)c1ccccc1 (stereo unspecified)	46.7

Next:
// map CCOc1ccccc1-c1nc2c(s1)C(=O)c1ccccc1C2=O to recorded TGI (system: SK-MEL-2 melanoma)
30

###

System: 786-0 renal
Test: NCI tumour cell line growth inhibition, 48 h
The compounds listed here are annotated with their GI50.

Below are worked cases with known answers.
Compound	Target under test	Assay metric	Result
O=[N+]([O-])c1cc(C(F)(F)F)ccc1Sc1ccc(C(F)(F)F)cc1[N+](=O)[O-]	786-0 renal	GI50	> 100 µM
O=C1c2ccccc2-c2c1c1c(O)cccc1n2Cc1ccccn1	786-0 renal	GI50	> 100 µM
CO/N=C(\COc1ccc2oc(-c3ccccc3)cc(=O)c2c1)c1ccc(OC)cc1	786-0 renal	GI50	21.9 µM
CCCCCCCCCNC(=O)/C=C/c1ccc(O)c(O)c1	786-0 renal	GI50	14.3 µM
[N-]=[N+]=NCCCn1c2c(c3ccc([N+](=O)[O-])cc3c1=O)C(=O)c1cc(F)ccc1-2	786-0 renal	GI50	0.334 µM

# get_value(readout='GI50', item= Cc1ccc(C(=O)/C(=C\c2ccc([N+](=O)[O-])cc2)S(=O)Cc2ccc(Cl)cc2)cc1 (stereo not drawn) )
1.57 µM

Note, next up: CCOC(=O)C#Cc1c(C(=O)OCC)nnn1Cc1ccc([N+](=O)[O-])cc1
3.29 µM

Note, next up: COC(=O)c1cc2c3ccccc3[nH]c2c2sccc12
13.8 µM

Note, next up: CC(=O)O[C@H](C[C@H](C(C)C)N(C)C(=O)[C@@H](NC(=O)[C@H]1CCCN1C)C(C)C)c1nc(C(=O)N[C@@H](Cc2ccccc2)C[C@H](C)C(=O)O)c(C)s1
0.00441 µM

Note, next up: Nc1ccc(-c2cccs2)cc1NC(=O)c1ccc(CCCC(=O)Nc2ccc(C3CC3N)cc2)cc1 (stereo not drawn)
1.61 µM
